The values you see were collected from PubChem BioAssay AID504523.

Biological target: Kelch-like ECH-associated protein 1 (Homo sapiens) (UniProt Q14145)
Sequence (Q14145 whole entry, looked up, the tested form may be a part): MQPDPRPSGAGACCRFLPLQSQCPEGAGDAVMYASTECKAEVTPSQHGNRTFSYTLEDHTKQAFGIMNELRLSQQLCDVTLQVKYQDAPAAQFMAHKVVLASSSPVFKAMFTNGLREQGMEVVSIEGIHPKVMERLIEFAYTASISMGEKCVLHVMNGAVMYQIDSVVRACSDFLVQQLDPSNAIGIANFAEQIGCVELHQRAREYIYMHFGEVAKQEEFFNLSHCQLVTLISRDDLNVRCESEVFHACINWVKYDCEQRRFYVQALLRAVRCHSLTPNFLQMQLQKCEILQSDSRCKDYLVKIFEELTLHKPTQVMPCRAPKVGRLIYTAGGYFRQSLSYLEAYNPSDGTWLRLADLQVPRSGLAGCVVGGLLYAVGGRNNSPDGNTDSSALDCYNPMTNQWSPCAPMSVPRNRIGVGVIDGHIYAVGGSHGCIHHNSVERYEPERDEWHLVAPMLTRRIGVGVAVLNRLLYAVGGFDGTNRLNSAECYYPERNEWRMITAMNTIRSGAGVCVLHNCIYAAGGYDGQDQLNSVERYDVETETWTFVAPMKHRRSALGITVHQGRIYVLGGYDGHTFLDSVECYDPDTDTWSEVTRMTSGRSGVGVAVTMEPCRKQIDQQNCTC
Assay: Keap1-Nrf2 protein-protein interaction inhibitors, primary screen, biochemical, fluorescence polarization, single point (AID 504523);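 further: human Keap1 Kelch domain with fluorescein labeled Nrf2 9mer peptide probe; 0% = neutral control wells and 100% = peptide positive control; higher means more block of Keap1 binding to Nrf2 peptide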
Settings: Keap1 Kelch-Nrf2 peptide fluorescence polarization, 1536-well; at 9.4 µM; stronger effect = higher value
Among all 340,000 compounds or so, about 490 (0.14%) were called active. The entries come from a sample that favours actives as a whole.
Kindly state inhibition for each of the entries shown.
Numeric only. Scale: %

get_value(item= O=C1[C@H]2[C@@H](c3ccc(F)cc3)N3C(=O)N(c4ccc(C(F)(F)F)cc4)C(=O)[C@@]3(Cc3ccccc3)[C@H]2C(=O)N1C1CCCCC1 , readout=inhibition) returns -3.09

inhibition for Cc1ccc(S(=O)(=O)CCC(=O)OCC(=O)N(C)Cc2ccccc2)cc1 is -7.11

Sure, the documented inhibition for O=C(Nc1cccc2c1N(C(=O)c1ccco1)CCC2)c1ccco1 is 0.867

So for CCS(=O)(=O)Nc1ccc(C(=O)NCCSc2ccccc2)cc1 , the logged inhibition turned out to be -1.14

Lab note: CN(Cc1nc2ccccc2c(=O)[nH]1)Cc1cc(=O)oc2ccc3ccccc3c12 gave inhibition of -4.19

Looking up Cc1ccc(S(=O)(=O)N2[C@@H](c3cccc4ccccc34)C(C(=O)O)=C[C@H]2C(C)(C)C)cc1 , I see its inhibition listed as 6.06

Looking up CCOC(=O)C1(Cc2ccccc2C)CCCN(S(C)(=O)=O)C1 (stereo not given) , I found its inhibition recorded as -4.08

So, O=C(NCCS(=O)(=O)NCc1ccc(Cl)cc1)c1ccccc1 ? Its inhibition was -4.29

Lab book: inhibition of OCCC1CN(Cc2cccc(O)c2)CCN1CCc1ccccc1 (stereo not given) noted as -6.53

Item: CCCc1nc(-c2cc3cc(C)ccc3[nH]c2=O)no1 | inhibition: 0.406

---

For each of the compounds below, state its inhibition.
Target: Kelch-like ECH-associated protein 1 (Homo sapiens)
Assay: Keap1-Nrf2 protein-protein interaction inhibitors, primary screen, biochemical, fluorescence polarization, single point (AID 504523);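 further: human Keap1 Kelch domain with fluorescein labeled Nrf2 9mer peptide probe; 0% = neutral control wells and 100% = peptide positive control; higher means more block of Keap1 binding to Nrf2 peptide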
Settings: Keap1 Kelch-Nrf2 peptide fluorescence polarization, 1536-well; at 9.4 µM; stronger effect = higher value
Out of some 340,000 compounds screened, about 490 (0.14%) were called active. The entries come from a sample that favours actives as a whole.
The reply should be a number in %, with the unit left off.

Per the records, this compound ( O=C1c2ccccc2S(=O)(=O)c2cc(N3CCN(c4ccccn4)CC3)ccc21 ) has inhibition equal to 3.87

Record CCN(CC)Cc1c(C(=O)N/N=C/c2cccc(OCc3ccc(F)cc3)c2)nnn1-c1nonc1N , field inhibition: 2.94

inhibition in this record for O=c1cnnc(Nc2ccccc2F)[nH]1 : -0.638

Looking up CCOc1ccc(S(=O)(=O)N2CCC(C(=O)OCc3ccc(OC)cc3)CC2)cc1 , I see its inhibition listed as -2.62

What the record says about COc1ccccc1C(=O)NCCn1cc(SCC(=O)NCc2ccco2)c2ccccc21 : inhibition is -4.2

For COc1ccc(CCNC(=O)COC(=O)Cc2cccc(F)c2)cc1 the compound record lists inhibition as -1.56

// field: inhibition; key: COc1cc(NS(=O)(=O)c2ccc(NC(=O)CN3C(=O)c4ccccc4C3=O)cc2)ncn1 ; value = -2.44

Documented inhibition of Cc1cc(=O)oc(C)c1C(=O)NC1CC(C)(C)NC(C)(C)C1 : -0.963

Data point: COc1ccc(S(=O)(=O)n2nc(C)c(S(=O)(=O)N3CCOCC3)c2C)cc1 ; inhibition = -1.09

Field inhibition (entry COc1cccc(NC(=O)CN(C)C(C)C(=O)Nc2ccc(C#N)cc2)c1 (stereo unspecified) ) reads 4.55

The recorded inhibition for entry CCC1CCc2c(sc(NC(C)=O)c2C#N)C1 (stereo unspecified) equals -1.96
